testDescription: solvent given as SMILES
testParameters: in O
outcomeMeasure: solvation free energy, 298 K (kcal/mol)
Enter your answer as a number in kcal/mol; do not include the unit.

Value lookup for solvation free energy, 298 K; key = `CC(=O)CC(=O)C(C)(C)C` -5.12

Please do the same for `N#Cc1cccc(O)c1` as well. -9.65

What do you get for `CCCCCC#N` ? -3.28

Thanks! And `C1CNC1` ? -5.56

Repeat for the following compound: `Oc1cccc(Cl)c1` -6.62

Would you mind doing `Cc1cccc(Nc2ccccc2C(=O)O)c1C` as well? -6.78

Also `O=Cc1ccccc1O` , if possible. -4.71

Request: `Clc1ccc(C(c2ccc(Cl)cc2)C(Cl)Cl)cc1` -4.88

Again, but for `CC(=O)C(C)C(C)=O` -4.75

Follow-up item: `O=C1CCCCC1` -4.91

Further, for `CCCOCCC` ? -1.23

What do we get for `C=CCC(C)(C)C` ? 1.53

Query `C#CCCCCCCC` next 0.74

Now consider `CCCS` and answer again. -0.99

# repeat for `COC(=O)c1ccc(O)cc1` -9.35

Now consider `CCCCCCCCCCCCCCCCCCCCC` . 4.71

And then CC1=CCC2C3C1C2(C)CCCC3(C)C (configuration not stated) , what is it? 0.29

How about this compound: CCCCCCC(C)O (configuration not stated) -3.77

Record: `CN(C)Cc1ccccc1` -5.05

Query `CCC(CC)CO` next -3.73

Field entry: `CCSc1nc(NC(C)C)nc(NC(C)C)n1` -9

Moving on to `CCNc1nc(NCC)nc(SC)n1` -10.1

* * *

I'd appreciate it if you could supply solvation free energy, 298 K values for the items below.
testDescription: solvent given as SMILES
testParameters: in CCCCO
// note: answer is a bare numeric in kcal/mol

Form field: reported solvation free energy, 298 K of `O=C(O)c1cccc(Cl)c1` -10.6

Follow-up item: `CCCOCCC` -4.13

Same again, this time with `CCCCCO` -6.77

* * *

testDescription: solvent given as SMILES
testParameters: in O
Assign true whenever solvation free energy, 298 K does not fall below -3 kcal/mol; assign false whenever it does.

I'd appreciate it if you could say whether `O=C1C=CC(=O)C=C1` has solvation free energy, 298 K at least equal to -3 kcal/mol. false

Queued: `O=c1[nH]c(=O)[nH]c(=O)[nH]1` false

Same thing, different molecule: `CC(=O)Nc1ccc(O)cc1` false

Now try C=CC(C)(CCC=C(C)C)OC(=O)CCC (centres undefined) . false

`CCc1cccs1` , same question. true

Query `CN(C)c1ccccc1` next false

Request: `COc1cc(C(C)=O)cc(-c2cc(C(C)=O)cc(OC)c2O)c1O` false

Now the molecule `C=CC(C)=CCC=C(C)CCC=C(C)C` true

Please give the result for `O=C(O)c1cccc(Cl)c1` too. false

Request: `CCCN(CCC)c1c([N+](=O)[O-])cc(S(C)(=O)=O)cc1[N+](=O)[O-]` false

Next up: `C1CCCC1` true

Ok, now `CCCCCCCCCCCCCCCCCCCCCCCCC` true

Entry `c1ccccc1` please true

Entry `COC(C)(OC)OC` please false

Try this molecule too: `C=CCC` true

`FS(F)(F)(F)(F)F` ? true

Now try `CC1=CCC(=C(C)C)CC1` . true

And then `Clc1cc(Cl)c(-c2cc(Cl)c(Cl)cc2Cl)cc1Cl` , what is it? false

Try the molecule `Cn1c(=O)c2c(ncn2C)n(C)c1=O` false

Try this molecule next: CC1=CCC23CC1C(C)(C)C2CCC3C (centres undefined) true

Could you do the same for CC(C)C(C)c1ccc(CC(=O)O)cc1 (centres undefined) , please? false

And the next one, `O=Nc1c(O)ccc2ccccc12` ? false

Param item: `C1CCCCC1` true

Param item: `CCC[N+](=O)[O-]` false

Field entry: `CCCCCCCO` false

Can you check `c1ccc2c(c1)ccc1c3ccccc3ccc21` next? false

And for `OC1CCCC1` ? false

Try this molecule too: `CNCCc1ccc(OC)cc1` false

Request: `CCCCCCCCCCCCCC(=O)OCC` false

* * *

testDescription: solvent given as SMILES
testParameters: in CCCCCCCCCCCCCCCC
Each record is given Fulfilled if its reported solvation free energy, 298 K is strictly below -4 kcal/mol. Records at or above -4 kcal/mol are given Not fulfilled.

Field: below-cutoff. Rule: recorded solvation free energy, 298 K strictly less than -4 kcal/mol. Subject: `S` Not fulfilled

Also `COC(C)=O` ? Not fulfilled

Also check `CC[N+](=O)[O-]` Not fulfilled

Next entry: `CCC[N+](=O)[O-]` Not fulfilled

Proceed to `COC=O` Not fulfilled

`Cc1ccc(C)cc1` , same question. Fulfilled

Now give it for `Clc1ccccc1` too. Fulfilled

How about `CC(C)CC(C)(C)C` ? Fulfilled

Record: `Brc1ccccc1` Fulfilled

And then `c1ccccc1` , what is it? Not fulfilled

Similarly, `ClC(Cl)(Cl)Cl` ? Not fulfilled

And then `FS(F)(F)(F)(F)F` , what is it? Not fulfilled

Subsequent entry: `ClCCCl` Not fulfilled

Ok, now `O=O` Not fulfilled

Repeat for the following compound: `CCCC(C)C` Not fulfilled

Next up: `C=CCCC=C` Not fulfilled

Same lookup for `CC(C)CC(C)C` , please. Not fulfilled

Another: `CCCCc1ccccc1` Fulfilled

* * *

testDescription: solvent given as SMILES
testParameters: in C1COCCO1
outcomeMeasure: solvation free energy, 298 K (kcal/mol)
Return type: number; implicit unit kcal/mol.

Entry under review: `O=C(O)c1cccnc1Nc1cccc(C(F)(F)F)c1` . Reported solvation free energy, 298 K? -17.9

Next record, please: `Clc1ccccc1` -5.78

Likewise for `Fc1c(F)c(F)c(F)c(F)c1F` ? -4.23

Moving on to `O=C(O)c1ccc([N+](=O)[O-])cc1` -13.1

Then what about the compound `Cc1ccccc1C(=O)O` ? -9.26

Continue with `O=C(O)c1cccc(Cl)c1` -10.9

What would you report for `CC(C)(C)Cl` ? -3.36

Please give the result for `BrCCBr` too. -5.84

Similarly, `CCCC(C)C` ? -3.03

And for `FC(Cl)(Cl)C(F)(Cl)Cl` ? -4.46

What do we get for `O=C(O)c1cc([N+](=O)[O-])cc([N+](=O)[O-])c1` ? -14.6

Please do the same for `COC(=O)c1ccc(O)cc1` as well. -12.3

Next compound: `ClCCl` -4.09

`c1ccc2c(c1)Cc1ccccc1O2` , same question. -10.8

Thanks! And `CCCO` ? -4.52

Okay, and `OC1CCCC1` ? -6.33

# repeat for `C1CCNCC1` -4.95

Input `CC(=O)Nc1ccc(O)cc1` -14.9

Subsequent entry: `c1cc2c3c(cccc3c1)CC2` -9.66

How about this compound: `Clc1ccccc1Cl` -7.01

Could you do the same for `Fc1ccccc1` , please? -4.69

Follow-up item: `CC(=O)Nc1ccccc1` -11.8

What about `C#CC` ? -2.46

Query `Brc1ccccc1` next -6.45

Likewise for `CCCCCCC(C)=O` ? -6.83

Next record, please: `O=C=O` -1.16

Here is the next compound: `Cc1ccccc1` -5.15

Thanks! And `S=C=S` ? -3.03

Try this compound too: `OCC(F)(F)F` -5.63

Same lookup for `CC(C)(C)C` , please. -2.16

Try this compound next: `CC(=O)Oc1ccccc1C(=O)O` -14.1

Now consider `O=c1c2ccccc2sc2ccccc12` and answer again. -12.9

Same for `C=C` -0.58

Do the same for `[2H][2H]` please 1.72

What do you get for `ClCc1ccccc1` ? -7.23

Another compound: `O=C(C(=O)c1ccccc1)c1ccccc1` -12.5

Now consider CC(C(=O)O)c1ccc(-c2ccccc2)c(F)c1 (configuration not stated) and answer again. -16.2

* * *

testDescription: solvent given as SMILES
testParameters: in CCCCCO
outcomeMeasure: solvation free energy, 298 K (kcal/mol)
Number only, in kcal/mol; omit the unit.

For the molecule `c1ccc2c(c1)-c1cccc3cccc-2c13` , what solvation free energy, 298 K is on record? -11.6

Next molecule: CN1C(=O)C(O)N=C(c2ccccc2)c2cc(Cl)ccc21 (stereo not drawn) -18.5

Next up: `[N-]=[N+]=O` -0.5

Note, next up: `Cc1ccccc1` -4.49

Can you check `CC(=O)Nc1ccc(O)cc1` next? -15.6

Please give the result for CCC(C)(C)C(=O)OC1CC(C)C=C2C=CC(C)C(CCC3CC(O)CC(=O)O3)C21 (stereo not drawn) too. -25

`c1ccc2c(c1)Nc1ccccc1S2` , same question. -13.1

Again, but for `O=[N+]([O-])c1cc(Cl)ccc1Cl` -8.23
